Sourced from patent US20240270826A1

Recorded pEC50 by entry
biological target: T1, SARS-CoV-2 S on CHO-S cells (SARS-CoV-2, UniProt P0DTC2 14-1273); experiment: flow cytometry, CHO-S cells
T1 construct: whole, on cells
pEC50: −log10 of the molar value.

# binder, pEC50
data = [
    ("NRCoV2-MRed04 VHH-Fc (Fc fusion, bivalent VHH-Fc) EVQLVESGGGLVQPGRSLRLSCAASGNSFSISTMGWFRQAPGKERELVASIWSDTTTSYADSVKGRFTISTDNTRTKVYLQMSSLNPEDTAVYYCAADRGFVVRGQYDYWGQGTQVTVSS", 8.38),
    ("NRCoV2-12 VHH-Fc (Fc fusion) EVQLQQSGGGLVQAGGSLRLSCAASGRTFRNYVMGWFRQAPQAPGKDHEFVAAISWGGTEIYYADSVKGRFTISRDNAKNTVYLQMNSLKPEDTAVYYCAADRGLSYYYTRTTEYNYWGQGTQVTVSS", 9.10),
]
